Tested on: Fibroblast
Experiment: Incucyte cell viability with human fibroblast; further: unitless GR value; below 1 slowed growth and below 0 cell loss
Format: toxicity, cell-based
Settings: 12 h, 10 µM, compound concentration 10 uM, replicate number 1, timepoint 12 hours
Returns one of class 1 or class 0; class 1 when Growth Rate is >= 0.2.

molecule=COc1ncc2cc(C(=O)Nc3cc(C(=O)NCc4cccc(Cl)c4)ccc3Cl)c(=O)[nH]c2n1 class_assignment="class 1"
molecule=CCCn1c(=O)c2[nH]c(C3CCCC3)nc2n(CCC)c1=O class_assignment="class 0"
molecule=CN(C)CCN(Cc1ccc(-c2ccc(CNCCc3ccccc3)cc2)cc1)C(=O)CCC1CCCC1.Cl.Cl class_assignment="class 0"
molecule=CCCCCCCCc1ccc(CC[C@](N)(CO)COP(=O)(O)O)cc1 class_assignment="class 1"
molecule="CO/C1=C/C(C)=C\\[C@@H](C)[C@@H](O)[C@@H](C)C/C(C)=C\\C=C/[C@H](OC)C([C@@H](C)[C@@H](O)[C@H](C)[C@@]2(O)C[C@@H](O)[C@H](C)[C@@H](C(C)C)O2)OC1=O (stereo not given in full)" class_assignment="class 0"
molecule=CN1CCN(c2ccc(Nc3c4ccccc4nc4ccccc34)cc2)CC1.Cl.Cl.O class_assignment="class 0"
molecule=CCCC(CCC)C(=O)O class_assignment="class 1"
molecule=O=c1ccn([C@@H]2O[C@H](COP(=O)([O-])OP(=O)([O-])OP(=O)([O-])O)[C@@H](O)[C@H]2O)c(=O)[nH]1.[Na+].[Na+].[Na+] class_assignment="class 0"
molecule=CCc1cc2cc(NS(=O)(=O)c3ccc(C#N)cc3)ccc2n(CC)c1=O class_assignment="class 1"
molecule=C=CCN1C[C@H](C(=O)N(CCCN(C)C)C(=O)NCC)C[C@@H]2c3cccc4[nH]cc(c34)C[C@H]21 class_assignment="class 1"
